Hey, just so you know, these numbers are from paper PMC4336329.

target: human ether-à-go-go-related gene (hERG) potassium channel (human, UniProt Q12809); assay: primary screen, population patch clamp on CHO cells stably expressing hERG; higher = less effect of the substance
Sequence (Q12809 whole entry, looked up): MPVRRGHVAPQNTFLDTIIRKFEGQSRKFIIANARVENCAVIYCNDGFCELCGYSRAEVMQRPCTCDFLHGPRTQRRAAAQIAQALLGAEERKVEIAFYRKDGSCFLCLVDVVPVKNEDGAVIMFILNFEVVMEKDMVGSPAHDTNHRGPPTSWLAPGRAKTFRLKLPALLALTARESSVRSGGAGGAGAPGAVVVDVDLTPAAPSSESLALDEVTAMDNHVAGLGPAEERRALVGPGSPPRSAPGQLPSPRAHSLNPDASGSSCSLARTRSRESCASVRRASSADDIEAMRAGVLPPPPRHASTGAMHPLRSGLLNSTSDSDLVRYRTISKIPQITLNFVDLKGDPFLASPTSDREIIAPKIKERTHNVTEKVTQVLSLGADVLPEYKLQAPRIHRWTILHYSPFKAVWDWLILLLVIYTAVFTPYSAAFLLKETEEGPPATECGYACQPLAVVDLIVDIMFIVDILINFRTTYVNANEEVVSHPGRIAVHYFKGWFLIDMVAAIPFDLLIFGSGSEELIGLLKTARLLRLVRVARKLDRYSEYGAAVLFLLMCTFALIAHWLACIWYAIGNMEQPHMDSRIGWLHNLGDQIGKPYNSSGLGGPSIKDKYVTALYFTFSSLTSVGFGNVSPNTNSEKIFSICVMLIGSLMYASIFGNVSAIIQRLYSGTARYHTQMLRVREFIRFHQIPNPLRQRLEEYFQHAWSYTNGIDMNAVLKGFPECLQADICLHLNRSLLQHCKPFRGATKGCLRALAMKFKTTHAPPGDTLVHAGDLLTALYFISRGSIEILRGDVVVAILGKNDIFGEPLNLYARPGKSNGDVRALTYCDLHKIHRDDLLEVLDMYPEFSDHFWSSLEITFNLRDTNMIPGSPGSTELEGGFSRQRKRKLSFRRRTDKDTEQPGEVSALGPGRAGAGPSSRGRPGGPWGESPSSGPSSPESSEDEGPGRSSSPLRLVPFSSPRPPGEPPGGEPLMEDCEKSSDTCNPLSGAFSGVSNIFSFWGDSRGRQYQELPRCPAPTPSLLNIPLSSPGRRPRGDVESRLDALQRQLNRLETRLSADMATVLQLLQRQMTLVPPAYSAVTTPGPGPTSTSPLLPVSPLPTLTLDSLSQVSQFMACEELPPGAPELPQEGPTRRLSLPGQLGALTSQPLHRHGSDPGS
Out of some 310,000 compounds screened, about 2,200 (0.71%) showed an effect of 50% or more. The effect is printed as a negative number. This is one part of a sample in which strong results are shown more often than they occur.
Measured hERG current change (%, negative = inhibition) at 1uM of individual entries
Respond with the bare value in %.

Consider the following illustrative entries.
Cc1nc2ccccc2c2oc(C(=O)N3CCN(C(=O)c4ccco4)CC3)cc12: -23.2
Cc1cccc2[nH]c3c(N4CCN(C(=O)c5ccco5)CC4)ncnc3c12: -5.77
O=C(c1ccco1)N1CCN(c2ncnc3c2[nH]c2ccc(Cl)cc23)CC1: -70.1
O=C(C1CCCCC1)N1CCN(c2ccnc3cc(Cl)ccc23)CC1: -27.1

Then this compound:
Any idea what its hERG current change (%, negative = inhibition) at 1uM is? The compound is O=C(C1CC1)N1CCN(c2ccnc3cc(Cl)ccc23)CC1
-31.6
